Taken from patent US20250057951A1.

# tgt: T1, Biotinylated Avitag-hSCF (human, UniProt P21583 26-190, limits assumed, biotinylated Avitag)
# T1 construct: Bought reagent; also called hSCF (Acros Biosystems SCF-H82E1)
# assay: BLI (Octet), steady state: biotinylated SCF on streptavidin biosensor, CD117 D1-2-3 variant as analyte; KD relative to WT
property label: binding result

>>> observed_result("K193D (receptor, not in the list MOLECULES; also called human CD117 D1-2-3 variant K193D) extracellular domains 1, 2 and 3: QPSVSPGEPSPPSIHPGKSDLIVRVGDEIRLLCTDPGFVKWTFEILDETNENKQNEWITEKAEATNTGKYTCTNKHGLSNSIYVFVRDPAKLFLVDRSLYGKEDNDTLVRCPLTDPEVTNYSLKGCQGKPLPKDLRFIPDPKAGIMIKSVKRAYHRLCLHCSVDQEGDSVLSEKFILKVRPAFKAVPVVSVSKASYLLREGEEFTVTCTIKDVSSSVYSTWKRENSQTKLQEKYNSWHHGDFNYERQATLTISSARVNDSGVFMCYANNTFGSANVTTTLEVVD")
"binds"
>>> observed_result("R122S (receptor, not in the list MOLECULES; also called human CD117 D1-2-3 variant R122S) extracellular domains 1, 2 and 3: QPSVSPGEPSPPSIHPGKSDLIVRVGDEIRLLCTDPGFVKWTFEILDETNENKQNEWITEKAEATNTGKYTCTNKHGLSNSIYVFVRDPAKLFLVDSSLYGKEDNDTLVRCPLTDPEVTNYSLKGCQGKPLPKDLRFIPDPKAGIMIKSVKRAYHRLCLHCSVDQEGKSVLSEKFILKVRPAFKAVPVVSVSKASYLLREGEEFTVTCTIKDVSSSVYSTWKRENSQTKLQEKYNSWHHGDFNYERQATLTISSARVNDSGVFMCYANNTFGSANVTTTLEVVD")
"binds"
